# test-method-notes: Tissue distribution of UCN-01 in rats, effect of human AGP
# Assay type: in vivo, male Wistar rats
# experimental-setup: rat, muscle, iv, 10 mg/kg, muscle; UCN-01 + human AGP, 1 h; read-out: tissue concentration
quantity: concentration at 1 h

stdin: Request the reported concentration at 1 h associated with CN[C@@H]1C[C@H]2O[C@@](C)([C@@H]1OC)n1c3ccccc3c3c4c(c5c6ccccc6n2c5c31)C(=O)N[C@@H]4O [UCN-01, 7-hydroxystaurosporine]
stdout: 6590 ng/g

* * *

# test-method-notes: UCN-01 pharmacokinetics in rats, effect of human AGP
# Type: in vivo, male Wistar rats
# experimental-setup: rat, plasma, iv; 10 mg/kg i.v., presence of human AGP; read-out: peak plasma concentration
quantity: Cmax

stdin: Request the reported Cmax associated with CN[C@@H]1C[C@H]2O[C@@](C)([C@@H]1OC)n1c3ccccc3c3c4c(c5c6ccccc6n2c5c31)C(=O)N[C@@H]4O [UCN-01, 7-hydroxystaurosporine]
stdout: > 0.1 µM

* * *

# test-method-notes: Tissue distribution of UCN-01 in rats, effect of human AGP
# Format: in vivo, male Wistar rats
# experimental-setup: rat, liver, iv, 10 mg/kg, liver; UCN-01 alone, 1 h; read-out: Tissue/Plasma ratio
quantity: Kp at 1 h

stdin: Request the reported Kp at 1 h associated with CN[C@@H]1C[C@H]2O[C@@](C)([C@@H]1OC)n1c3ccccc3c3c4c(c5c6ccccc6n2c5c31)C(=O)N[C@@H]4O [UCN-01, 7-hydroxystaurosporine]
stdout: 189

* * *

# test-method-notes: Tissue distribution of UCN-01 in rats, effect of human AGP
# Assay type: in vivo, male Wistar rats
# experimental-setup: rat, spleen, iv, 10 mg/kg, spleen; UCN-01 + human AGP, 1 h; read-out: tissue concentration
quantity: concentration at 1 h
I'd appreciate it if you wrote the number followed by its unit.

stdin: Request the reported concentration at 1 h associated with CN[C@@H]1C[C@H]2O[C@@](C)([C@@H]1OC)n1c3ccccc3c3c4c(c5c6ccccc6n2c5c31)C(=O)N[C@@H]4O [UCN-01, 7-hydroxystaurosporine]
stdout: 53300 ng/g

* * *

# test-method-notes: Tissue distribution of UCN-01 in rats, effect of human AGP
# Assay type: in vivo, male Wistar rats
# experimental-setup: rat, heart, iv, 10 mg/kg, heart; UCN-01 10 mg/kg alone, 1 h; read-out: tissue concentration
quantity: concentration at 1 h (ng/g)
Numbers only, in ng/g.

stdin: Request the reported concentration at 1 h associated with CN[C@@H]1C[C@H]2O[C@@](C)([C@@H]1OC)n1c3ccccc3c3c4c(c5c6ccccc6n2c5c31)C(=O)N[C@@H]4O [UCN-01, 7-hydroxystaurosporine]
stdout: 19900

* * *

# test-method-notes: Tissue distribution of UCN-01 in rats, effect of human AGP
# Assay type: in vivo, male Wistar rats
# experimental-setup: rat, spleen, iv, 10 mg/kg, spleen; UCN-01 alone, 1 h; read-out: Tissue/Plasma ratio
quantity: Kp at 1 h
Answers are plain numbers.

stdin: Request the reported Kp at 1 h associated with CN[C@@H]1C[C@H]2O[C@@](C)([C@@H]1OC)n1c3ccccc3c3c4c(c5c6ccccc6n2c5c31)C(=O)N[C@@H]4O [UCN-01, 7-hydroxystaurosporine]
stdout: 326

* * *

# test-method-notes: Tissue distribution of UCN-01 in rats, effect of human AGP
# Type: in vivo, male Wistar rats
# experimental-setup: rat, heart, iv, 10 mg/kg, heart; UCN-01 alone, 1 h; read-out: Tissue/Plasma ratio
quantity: Kp at 1 h
Give bare numbers.

stdin: Request the reported Kp at 1 h associated with CN[C@@H]1C[C@H]2O[C@@](C)([C@@H]1OC)n1c3ccccc3c3c4c(c5c6ccccc6n2c5c31)C(=O)N[C@@H]4O [UCN-01, 7-hydroxystaurosporine]
stdout: 86.8

* * *

# test-method-notes: Tissue distribution of UCN-01 in rats, effect of human AGP
# Assay type: in vivo, male Wistar rats
# experimental-setup: rat, lung, iv, 10 mg/kg, lung; UCN-01 + human AGP, 1 h; read-out: Tissue/Plasma ratio
quantity: Kp at 1 h
Answers are plain numbers.

stdin: Request the reported Kp at 1 h associated with CN[C@@H]1C[C@H]2O[C@@](C)([C@@H]1OC)n1c3ccccc3c3c4c(c5c6ccccc6n2c5c31)C(=O)N[C@@H]4O [UCN-01, 7-hydroxystaurosporine]
stdout: 53.6

* * *

# test-method-notes: UCN-01 pharmacokinetics in rats, effect of human AGP
# Assay type: in vivo, male Wistar rats
# experimental-setup: rat, plasma, iv, 10 mg/kg, UCN-01 10 mg/kg i.v. + 10 mg human AGP; read-out: volume of distribution during the elimination phase
# Procedure: Many basic drugs tend to bind in variable degrees to AGP (Knowlton, K. et al., "Bcl-2 slows in vitro breast cancer growth despite its antiapoptotic effect," J. Surg. Res. 76:22-26 (1998)). […] Thus the role of human α1 -acid glycoprotein (AGP) binding on UCN-01 disposition was determined. […] Plasma samples were obtained over time (0-700 min), and were analyzed for UCN-01 by HPLC system (Shimazdu LC), detecting peaks using fluorescence detector (excitation=310 nm, emission=410).
quantity: Vd (L/kg)
One number for each entry, in L/kg.

stdin: Request the reported Vd associated with CN[C@@H]1C[C@H]2O[C@@](C)([C@@H]1OC)n1c3ccccc3c3c4c(c5c6ccccc6n2c5c31)C(=O)N[C@@H]4O [UCN-01, 7-hydroxystaurosporine]
stdout: 1.7

* * *

# test-method-notes: Tissue distribution of UCN-01 in rats, effect of human AGP
# Assay type: in vivo, male Wistar rats
# experimental-setup: rat, brain, iv, 10 mg/kg, brain; UCN-01 10 mg/kg alone, 1 h; read-out: tissue concentration
quantity: concentration at 1 h (ng/g)
Numbers only, in ng/g.

stdin: Request the reported concentration at 1 h associated with CN[C@@H]1C[C@H]2O[C@@](C)([C@@H]1OC)n1c3ccccc3c3c4c(c5c6ccccc6n2c5c31)C(=O)N[C@@H]4O [UCN-01, 7-hydroxystaurosporine]
stdout: 2450

* * *

# test-method-notes: Tissue distribution of UCN-01 in rats, effect of human AGP
# Type: in vivo, male Wistar rats
# experimental-setup: rat, all tissues, iv, 10 mg/kg, UCN-01, 1 h; read-out: tissue:plasma ratios, all tissues
quantity: Kp at 1 h

stdin: Request the reported Kp at 1 h associated with CN[C@@H]1C[C@H]2O[C@@](C)([C@@H]1OC)n1c3ccccc3c3c4c(c5c6ccccc6n2c5c31)C(=O)N[C@@H]4O [UCN-01, 7-hydroxystaurosporine]
stdout: 10 to 1190

* * *

# test-method-notes: Tissue distribution of UCN-01 in rats, effect of human AGP
# Assay type: in vivo, male Wistar rats
# experimental-setup: rat, lung, iv, 10 mg/kg, lung; UCN-01 10 mg/kg alone, 1 h; read-out: tissue concentration
quantity: concentration at 1 h (ng/g)
Answers are plain numbers, in ng/g.

stdin: Request the reported concentration at 1 h associated with CN[C@@H]1C[C@H]2O[C@@](C)([C@@H]1OC)n1c3ccccc3c3c4c(c5c6ccccc6n2c5c31)C(=O)N[C@@H]4O [UCN-01, 7-hydroxystaurosporine]
stdout: 279000

* * *

# Test system: MDA-231 cells
# test-method-notes: cells
# Type: cell-based, human
# experimental-setup: Homo sapiens, MDA-MB-231, 24 h, read-out: 50% inhibition of cell growth (CPT alone)
quantity: IC50
I'd appreciate it if you wrote the number followed by its unit.

stdin: Observed IC50 on MDA-231 cells for CC[C@@]1(O)C(=O)OCc2c1cc1n(c2=O)Cc2cc3ccccc3nc2-1 , please.
stdout: 0.2 µM

* * *

# test-method-notes: UCN-01 pharmacokinetics in rats, effect of human AGP
# Format: in vivo, male Wistar rats
# experimental-setup: rat, plasma, iv, 10 mg/kg, 10 mg/kg i.v.; range over the two groups (without and with 10 mg human AGP); read-out: t1/2β
# Method: Many basic drugs tend to bind in variable degrees to AGP (Knowlton, K. et al., "Bcl-2 slows in vitro breast cancer growth despite its antiapoptotic effect," J. Surg. Res. 76:22-26 (1998)). […] Thus the role of human α1 -acid glycoprotein (AGP) binding on UCN-01 disposition was determined. […] Plasma samples were obtained over time (0-700 min), and were analyzed for UCN-01 by HPLC system (Shimazdu LC), detecting peaks using fluorescence detector (excitation=310 nm, emission=410).
quantity: half-life

stdin: Request the reported half-life associated with CN[C@@H]1C[C@H]2O[C@@](C)([C@@H]1OC)n1c3ccccc3c3c4c(c5c6ccccc6n2c5c31)C(=O)N[C@@H]4O [UCN-01, 7-hydroxystaurosporine]
stdout: 6.65 to 6.95 h

* * *

# test-method-notes: in vivo
# experimental-setup: rat, in vivo, iv, 10 mg/kg
quantity: half-life
I'd appreciate it if you wrote the number followed by its unit.

stdin: Request the reported half-life associated with CC[C@@]1(O)C(=O)OCc2c1cc1n(c2=O)Cc2cc3ccccc3nc2-1
stdout: 1.42 h
